# ASSAYED_SYSTEM: T1, GPR39 (G protein coupled receptor 39) (UniProt O43194 1-453, limits assumed)
# T1 sequence (looked up): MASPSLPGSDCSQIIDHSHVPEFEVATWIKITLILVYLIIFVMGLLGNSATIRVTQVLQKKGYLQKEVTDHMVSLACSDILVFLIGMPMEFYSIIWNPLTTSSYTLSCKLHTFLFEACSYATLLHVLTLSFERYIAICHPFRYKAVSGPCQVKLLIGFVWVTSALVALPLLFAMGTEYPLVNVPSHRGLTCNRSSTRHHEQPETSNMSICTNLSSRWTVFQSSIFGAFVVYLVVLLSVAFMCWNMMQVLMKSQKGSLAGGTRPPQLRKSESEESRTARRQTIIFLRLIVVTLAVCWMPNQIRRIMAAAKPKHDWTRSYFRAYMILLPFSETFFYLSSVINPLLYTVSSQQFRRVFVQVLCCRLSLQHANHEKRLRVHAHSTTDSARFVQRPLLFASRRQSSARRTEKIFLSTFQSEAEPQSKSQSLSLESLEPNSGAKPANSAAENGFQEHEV
# ASSAY_TEXT: cell-based or functional assay
Square brackets hold non-standard residues; d marks the D form. Ends that are not written are not given here. * marks the point of attachment. dPhe(4-CF3) = N[C@H](Cc1ccc(C(F)(F)F)cc1)C(=O)O; 4‑chlorobenzhydryl = Clc1ccc(C(c2ccccc2)*)cc1; dPhe(4-Cl) = N[C@H](Cc1ccc(Cl)cc1)C(=O)O; Trt = c1ccc(C(c2ccccc2)(c2ccccc2)*)cc1; dPhe(4-F) = N[C@H](Cc1ccc(F)cc1)C(=O)O; Octanoyl = CCCCCCCC(=O)*
Some binders, each annotated with its measured EC50; SRE-luciferase reporter.
Quick reminder: number only, in µM, skip the unit.

Consider the following illustrative entries.
H(Trt)FYDQQARF (also: C-terminal Phe amide in IUPAC name, not in sequence formula) [HKFY-52]; 56.4
His(Trt)-Lys(Octanoyl)-Phe-OH [HKFY-49]; 0.32
H(4‑chlorobenzhydryl)K(Octanoyl)FY [HKFY-21]; 136
H(Trt)K(Octanoyl)FYHQQARF (not fully specified; printed as His(trt)-Lys(caprylic)-Phe-Tyr-His-Gln-Gln-Ala-Arg-Phe) [HKFY-42]; 1.58
H(Trt)K(Octanoyl)[dPhe(4-F)]Y-OH [HKFY-28]; 0.074

Ask | Bench note: what EC50; SRE-luciferase reporter did H(Trt)K(Octanoyl)[dPhe(4-CF3)]Y-OH [HKFY-76] show?
Reply | 0.007

Ask | Next entry: [dH](Trt)K(Octanoyl)[dPhe(4-Cl)][dY] [HKFY-14]
Reply | 0.02

Ask | Thanks! And H(Trt)K(Octanoyl)FW [HKFY-46] ?
Reply | 0.26

Ask | Moving on to H(Trt)K(Octanoyl)[dF]Y-OH (not fully specified; printed as His(trt)-Lys(caprylic)-d-Phe-Tyr) [HKFY-12]
Reply | 0.035

Ask | Param item: H(Trt)K(Octanoyl)[dPhe(4-Cl)]Y [HKFY-13]
Reply | 0.014
